Numbers sourced from ChEMBL document CHEMBL1158548.

# Measurement Description: Octanol/aqueous KCl distribution coefficient, log D at pH 7.4 by potentiometric titration
# Type: physicochemical
Parameter: logD

Examples with their reported logD follow.
Cc1nc2c3c(c(C(=O)N(C)C)cc2n1C)CC[C@@H](c1ccccc1C1CC1)O3	3.18
Cc1nc2c3c(c(C(=O)N(C)C)cc2n1C)CC[C@@H](c1ccc(Cl)cc1)O3	2.92
Cc1nc2c3c(c(C(=O)N(C)C)cc2[nH]1)CC[C@@H](c1ccccc1C)O3	2.82
Cc1cc(Cl)ccc1[C@@H]1CCc2c(C(=O)N(C)C)cc3c(nc(C)n3C)c2O1	3.4
Cc1nc2c3c(c(C(=O)N(C)C)cc2n1C)CC[C@@H](c1ccccc1Cl)O3	2.86
COCc1ccccc1[C@@H]1CCc2c(C(=O)N(C)C)cc3c(nc(C)n3C)c2O1	1.9

(I) Cc1nc2c3c(c(C(=O)N(C)C)cc2n1C)CC[C@@H](c1ccccc1F)O3
(II) CNC(=O)c1cc2c(nc(C)n2C)c2c1CC[C@@H](c1ccc(Cl)cc1C)O2
Hey, between I and II which has a smaller measured logD? Your answer should be the label attached to the chosen record.
I
